# Tested on: Escherichia coli
# Test Details: Antimicrobial activity against recombinant Escherichia coli DHalpha expressing pBAD [aph(3')-2]
# Type: functional
# Details: DH5alpha
Quantity Kind: MIC (µg/mL)

NC[C@@H]1O[C@H](O[C@H]2[C@@H](O)[C@H](O[C@@H]3[C@@H](O)[C@H](N)C[C@H](N)[C@H]3O[C@H]3O[C@H](CO)[C@@H](O)C[C@H]3N)O[C@@H]2CO)[C@H](N)[C@@H](O)[C@@H]1O[C@H]1O[C@H](CO)[C@@H](O)[C@H](O)[C@@H]1O | 4
CN[C@@H]1[C@@H](O)[C@@H](O[C@@H]2[C@@H](O)[C@H](O[C@H]3OC(CN)=CC[C@H]3N)[C@@H](N)C[C@H]2N)OC[C@]1(C)O | 0.125
NC[C@@H]1O[C@H](O[C@H]2[C@@H](O)[C@H](O[C@@H]3[C@@H](O)[C@H](N)C[C@H](N)[C@H]3O[C@H]3O[C@H](CN)[C@@H](O)[C@H](O)[C@H]3N)O[C@@H]2CO)[C@H](N)[C@@H](O)[C@@H]1O | 0.5

###

# Tested on: Escherichia coli
# Test Details: Antimicrobial activity against recombinant Escherichia coli DHalpha expressing pBAD [aph(3')-2]
# Format: functional
# Details: DH5alpha
Measured MIC, listed per entry.
Quantity Kind: MIC (µg/mL)

NC[C@@H]1O[C@H](O[C@H]2[C@@H](O)[C@H](O[C@@H]3[C@@H](O)[C@H](N)C[C@H](N)[C@H]3O[C@H]3O[C@H](CO)[C@@H](O)[C@H](O)[C@H]3N)O[C@@H]2CO)[C@H](N)[C@@H](O)[C@@H]1O | 0.25
NCC[C@H](O)C(=O)N[C@@H]1C[C@H](N)[C@@H](O[C@H]2O[C@H](CN)[C@@H](O)[C@H](O)[C@H]2O)[C@H](O)[C@H]1O[C@H]1O[C@H](CO)[C@@H](O)[C@H](N)[C@H]1O | 0.5
NC[C@H]1O[C@H](O[C@H]2[C@H](O)[C@@H](O[C@H]3O[C@H](CO)[C@@H](O)[C@H](N)[C@H]3O)[C@H](N)C[C@@H]2N)[C@H](N)C[C@@H]1O | 0.5

###

# Test system: Escherichia coli
# Test Details: Antimicrobial activity against recombinant Escherichia coli DH5alpha expressing pBAD
# Assay type: functional
Measured MIC, listed per entry.
Quantity Kind: MIC

NCC[C@H](O)C(=O)N[C@@H]1C[C@H](N)[C@@H](O[C@H]2O[C@H](CN)[C@@H](O)[C@H](O)[C@H]2O)[C@H](O)[C@H]1O[C@H]1O[C@H](CO)[C@@H](O)[C@H](N)[C@H]1O | 0.5 µg/mL
NC[C@H]1O[C@H](O[C@H]2[C@H](O)[C@@H](O[C@H]3O[C@H](CO)[C@@H](O)[C@H](N)[C@H]3O)[C@H](N)C[C@@H]2N)[C@H](N)C[C@@H]1O | 0.5 µg/mL
NC[C@@H]1O[C@H](O[C@H]2[C@@H](O)[C@H](O[C@@H]3[C@@H](O)[C@H](N)C[C@H](N)[C@H]3O[C@H]3O[C@H](CO)[C@@H](O)C[C@H]3N)O[C@@H]2CO)[C@H](N)[C@@H](O)[C@@H]1O[C@H]1O[C@H](CO)[C@@H](O)[C@H](O)[C@@H]1O | 4 µg/mL
CN[C@@H]1[C@@H](O)[C@@H](O[C@@H]2[C@@H](O)[C@H](O[C@H]3OC(CN)=CC[C@H]3N)[C@@H](N)C[C@H]2N)OC[C@]1(C)O | 0.125 µg/mL
NC[C@@H]1O[C@H](O[C@H]2[C@@H](O)[C@H](O[C@@H]3[C@@H](O)[C@H](N)C[C@H](N)[C@H]3O[C@H]3O[C@H](CN)[C@@H](O)[C@H](O)[C@H]3N)O[C@@H]2CO)[C@H](N)[C@@H](O)[C@@H]1O | 0.5 µg/mL
NC[C@@H]1O[C@H](O[C@H]2[C@@H](O)[C@H](O[C@@H]3[C@@H](O)[C@H](N)C[C@H](N)[C@H]3O[C@H]3O[C@H](CO)[C@@H](O)[C@H](O)[C@H]3N)O[C@@H]2CO)[C@H](N)[C@@H](O)[C@@H]1O | 0.25 µg/mL
